Test system: CCRIS mutagenicity, Ames/micronucleus/aberration tests
Assay: CCRIS mutagenicity studies
Settings: Test System: AMES SALMONELLA TYPHIMURIUM; Strain/Indicator: TA100; Metabolic Activation: HAMSTER, LIVER, S-9; Method: PREINCUBATION
Calls of active or inactive are those of the source. No rule for the calls is given here.
Possible outcomes: T for active, F for inactive

* CC(=O)OC(C)CN(CC(C)OC(C)=O)N=O (stereo not given) | T
* CC(=O)CN(CC(C)O)N=O (stereo not given) | T
* CC(O)CN(CC(O)CO)N=O (stereo not given) | F
* CN(CC(O)CO)N=O (stereo not given) | T
* O=NN1CCCC1 | T
